- Target Or System: T1, RBFOX1 RRM (Homo sapiens, UniProt Q9NWB1 109-208)
- T1 sequence: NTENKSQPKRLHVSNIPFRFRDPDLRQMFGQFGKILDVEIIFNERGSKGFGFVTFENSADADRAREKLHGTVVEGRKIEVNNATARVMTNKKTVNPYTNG
- Experiment: EMSA; HiTS-Eq, 1 nM pool, 10 min; buffer printed only for the single-RNA assays: 10 mM Tris pH 7.5, 150 mM NaCl, 3.4 mM EDTA, 0.001% NP-40, 30 C
- Run Parameters: tags: His6 N-terminal (pET28a); label: 5' 32P
Over roughly 16,000 sequences, “ka relative to ugcaugu” has its median near 0.0091; the highest 2% begin near 0.032. Shown is part of a subset that was picked to be rich in the highest values.
# binding signal listing for each entry below

| Binder | binding signal |
| --- | --- |
| CGCAUGC (DNA:RNA) RNA: GGGAGACCGGAAUUCAGAUUGUCCCGCAUGCUUAAAUCCCGUCGUAGCCACCA DNA 1: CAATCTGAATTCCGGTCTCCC DNA 2: TGGTGGCTACGACGGGATT | 0.895 KA relative to UGCAUGU |
| AGGAGGC (DNA:RNA) RNA: GGGAGACCGGAAUUCAGAUUGUCCAGGAGGCUUAAAUCCCGUCGUAGCCACCA DNA 1: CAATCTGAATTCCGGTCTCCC DNA 2: TGGTGGCTACGACGGGATT | 0.0129 KA relative to UGCAUGU |
| AUGGGUC (DNA:RNA) RNA: GGGAGACCGGAAUUCAGAUUGUCCAUGGGUCUUAAAUCCCGUCGUAGCCACCA DNA 1: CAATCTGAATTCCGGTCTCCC DNA 2: TGGTGGCTACGACGGGATT | 0.0197 KA relative to UGCAUGU |
| UAAGGUC (DNA:RNA) RNA: GGGAGACCGGAAUUCAGAUUGUCCUAAGGUCUUAAAUCCCGUCGUAGCCACCA DNA 1: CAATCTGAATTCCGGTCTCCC DNA 2: TGGTGGCTACGACGGGATT | 0.0168 KA relative to UGCAUGU |

Numbers sourced from paper PMC9911399.
